Target: T1, phycoerythrin (PE)-conjugated BCMA (Recombinant Human TNFRSF17 protein, Fc/His-tagged, R-PE labeled); Creative … (human, UniProt Q02223 1-54, R-PE labeled)
T1 construct: Bought reagent; also called BCMA-PE; not shown: Fc/His tag of the bought reagent
T1 sequence: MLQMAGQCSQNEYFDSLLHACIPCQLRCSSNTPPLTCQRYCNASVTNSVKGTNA
Assay: flow cytometry; CAR T cells stained with BCMA-PE, 3 days after electroporation
parameter: BCMA Binding (relative to SEQ ID: 48)

[
  {
    "binder": "CAR comprising scFv-J3 (SEQ ID NO: 51) (other, CAR on mRNA-electroporated human CD8+ T cells; Only the scFv is identified; not shown: rest of the CAR (hinge, transmembrane, cytoplasmic domains) not specified for this construct) DIVLTQSPASLAVSLGKRATISCRASESVTILGSHLIHWYQQKPGQPPKLLIYLASNVQTGVPARFSGSGSGTDFTLTISSLEAEDVAVYYCLQSRTIPRTFGQGTKLEIKGSTSGSGKPGSGEGSTKGQVQLVQSGAEVKKPGASVKISCKASGYTFTDYSINWVRQAPGQGLEWMGWINTETREPAYAYDFRGRVTMTRDTSASTAYLQISSLKAEDTAVYFCALDYSYAMDYWGQGSLVTVSS",
    "parameter": "BCMA Binding (relative to SEQ ID: 48)",
    "meas-value": "54 relative to SEQ ID: 48 = 100"
  }
]

Here's the next entry for you.
What does the record list as BCMA Binding (relative to SEQ ID: 48) for CAR comprising scFv-J1 (SEQ ID NO: 49) (other, CAR on mRNA-electroporated human CD8+ T cells; Only the scFv is identified; not shown: rest of the CAR (hinge, transmembrane, cytoplasmic domains) not specified for this construct) DIVMTQSPDSLSVSLGERATINCRASESVTILGSHLIHWYQQKPGQPPKLLIQLASNVQTGVPDRFSGSGSGTDFTLTISSLQAEDVAVYYCLQSRTIPRTFGGGTKVEIKGSTSGSGKPGSGEGSTKGQIQLVQSGAEVKKPGASVKISCKASGYTFTDYSINWVRQAPGQGLEWMGWINTETREPAYAYDFRGRVTMTRDTSASTAYLQISSLKAEDTAVYFCALDYSYAMDYWGQGSLVTVSS ?
76 relative to SEQ ID: 48 = 100
